tested on: wheat (Triticum aestivum); experiment: Test A greenhouse herbicide test, pre- and postemergence; type: in vivo; settings: Postemergence, 125 g ai/ha; 0 to 100 scale where 0 is no effect and 100 is complete control

| smiles string | Plant response rating, Wheat |
| --- | --- |
| CCC(=O)Oc1c(C)nn(C)c(=O)c1-c1c(C)ccc2ccccc12 | 0 |
| Cc1sc2ccccc2c1-c1c(O)c(Cl)nn(C)c1=O | 0 |
| Cc1ccc2ccc(Cl)cc2c1-c1c(O)c(C)nn(C)c1=O | 90 |
| CCC(=O)Oc1c(OC)nn(C)c(=O)c1-c1c(C)sc2ccc(Cl)cc12 | 0 |
| Cc1ccc2sc(Br)c(-c3c(O)c(C)nn(C)c3=O)c2c1 | 0 |
| CCC(=O)Oc1c(C)nn(C)c(=O)c1-c1ccc(F)c2ccccc12 | 30 |
| CCCC(=O)Oc1c(C)nn(C)c(=O)c1-c1c(CC)sc2ccc(C)cc12 | 30 |
| Cc1ccc2ccccc2c1-c1c(O)c(I)nn(C)c1=O | 40 |
| Cc1sc2ccc(C(F)(F)F)cc2c1-c1c(O)c(Cl)nn(C)c1=O | 20 |

----------
tested on: galium (catchweed bedstraw, Galium aparine); experiment: Test D controlled growth environment herbicide test, pre- and postemergence; type: in vivo; details: Preemergence, 62 g ai/ha; scale 0 to 100 (0 no effect, 100 complete control)
Examples of molecules with documented Plant response rating, Galium follow.

| smiles string | Plant response rating, Galium |
| --- | --- |
| Cc1nn(C)c(=O)c(-c2ccc(F)c3ccccc23)c1O | 85 |
| CCc1sc2ccc(C)cc2c1-c1c(O)c(C)nn(C)c1=O | 95 |
| COC(=O)Oc1c(C)nn(C)c(=O)c1-c1c(C)sc2ccc(C)cc12 | 40 |
| Cc1ccc2sc(C)c(-c3c(OC(=O)OC(C)C)c(C)nn(C)c3=O)c2c1 | 20 |
| Cc1cc2ccccc2c(-c2c(O)c(C)nn(C)c2=O)c1C | 35 |

----------
test system: johnsongrass (Sorghum halepense); assay: Test C greenhouse herbicide test, pre- and postemergence; assay type: in vivo; conditions: Preemergence, 62 g ai/ha; scale 0 to 100, 0 is no effect, 100 is complete control
Entries and their measured Plant response rating, Johnsongrass follow.

| smiles string | Plant response rating, Johnsongrass |
| --- | --- |
| Cc1nn(C)c(=O)c(-c2c(C)sc3ccc(Br)cc23)c1O | 0 |
| Cc1nn(C)c(=O)c(-c2ccc(Br)c3ccccc23)c1O | 20 |
| COC(=O)Oc1c(OC)nn(C)c(=O)c1-c1c(C)ccc2ccccc12 | 5 |
| Cc1sc2ccccc2c1-c1c(O)c(Cl)nn(C)c1=O | 75 |
| CCC(=O)Oc1c(C)nn(C)c(=O)c1-c1ccc(Br)c2ccccc12 | 5 |
| COC(=O)Oc1c(C)nn(C)c(=O)c1-c1c(C)sc2ccc(C)cc12 | 5 |
| Cc1ccc2ccccc2c1-c1c(OC(=O)OC(C)C)c(C)nn(C)c1=O | 25 |
| COC(=O)Oc1c(C)nn(C)c(=O)c1-c1ccc(Br)c2ccccc12 | 5 |

----------
Reported Corn plant response rating values follow for various compounds
system: corn (Zea mays); assay: Test C greenhouse herbicide test, pre- and postemergence; type: in vivo; settings: postemergence, 62 g ai/ha; scale 0 to 100, 0 no effect, 100 complete control
measure: Corn plant response rating

| smiles string | recorded value |
| --- | --- |
| CCCC(=O)Oc1c(C)nn(C)c(=O)c1-c1c(CC)sc2ccc(C)cc12 | 10 |
| Cc1nn(C)c(=O)c(-c2ccc(F)c3ccccc23)c1O | 5 |
| CCC(=O)Oc1c(C)nn(C)c(=O)c1-c1c(C)ccc2ccccc12 | 0 |
| Cc1ccc2sc(Br)c(-c3c(O)c(C)nn(C)c3=O)c2c1 | 0 |
| Cc1ccc2sc(C)c(-c3c(OC(=O)C(C)(C)C)c(C)nn(C)c3=O)c2c1 | 10 |
| Cc1nn(C)c(=O)c(-c2c(C)sc3ccc(Br)cc23)c1O | 5 |
